biological target: Human DPP4 (Homo sapiens, UniProt P27487); construct: purchased Sigma-Aldrich MAK088; assay: DPP4 activity assay (DPP4 Activity Assay Kit, fluorescent substrate); format: biochemical; conditions: Human DPP4; read-out: DPP4 inhibition IC50 [nM])
Sequence (P27487 whole entry): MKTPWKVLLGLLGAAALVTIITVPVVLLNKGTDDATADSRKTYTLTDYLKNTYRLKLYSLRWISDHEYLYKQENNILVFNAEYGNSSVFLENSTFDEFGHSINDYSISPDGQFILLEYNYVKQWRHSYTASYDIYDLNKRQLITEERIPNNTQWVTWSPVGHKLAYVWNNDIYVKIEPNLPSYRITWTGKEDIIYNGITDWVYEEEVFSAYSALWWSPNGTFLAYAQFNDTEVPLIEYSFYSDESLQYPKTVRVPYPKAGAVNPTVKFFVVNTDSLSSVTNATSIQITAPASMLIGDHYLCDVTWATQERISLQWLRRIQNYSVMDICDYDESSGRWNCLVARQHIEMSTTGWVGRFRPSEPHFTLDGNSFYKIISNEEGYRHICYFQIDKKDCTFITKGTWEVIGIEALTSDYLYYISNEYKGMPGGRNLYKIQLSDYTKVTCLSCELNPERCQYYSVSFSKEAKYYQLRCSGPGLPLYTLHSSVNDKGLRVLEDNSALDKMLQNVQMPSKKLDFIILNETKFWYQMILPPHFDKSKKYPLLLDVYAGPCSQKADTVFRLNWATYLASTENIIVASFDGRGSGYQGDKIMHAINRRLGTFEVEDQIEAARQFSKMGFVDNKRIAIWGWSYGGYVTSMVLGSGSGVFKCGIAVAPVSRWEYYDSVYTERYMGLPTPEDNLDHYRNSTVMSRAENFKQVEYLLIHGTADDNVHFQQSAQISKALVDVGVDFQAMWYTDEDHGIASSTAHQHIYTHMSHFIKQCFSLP
observed.property: IC50 (nM)

These solved cases illustrate the format of a correct answer.
{"columns": ["molecule", "readout.value"],
 "data": [
  ["CCCCCCCS(=O)C12CC3C[C@@H](CC(NCC(=O)N4CCC[C@H]4C#N)(C3)C1)C2 (stereo in doubt)", 9],
  ["CCCCCCCC(=O)OC12CC3C[C@@H](CC(NCC(=O)N4CCC[C@H]4C#N)(C3)C1)C2 (stereo in doubt)", 238],
  ["CCN(Cc1ccc(CNC(=O)OCCO[C@]23CC4C[C@H](C2)C[C@@]([C@H](N)C(=O)N2[C@H](C#N)C[C@@H]5C[C@@H]52)(C4)C3)cc1)C[C@H](O)[C@@H](O)[C@H](O)[C@H](O)CO", 4.2],
  ["CC#CCn1c(N2CCC[C@@H](N)C2)nc2c1c(=O)n(Cc1nc(NCCCCCCCn3cc(CN(C[C@H](O)[C@@H](O)[C@H](O)[C@H](O)CO)C[C@H](O)[C@@H](O)[C@H](O)[C@H](O)CO)nn3)ccc1C(=O)OC)c(=O)n2C", 41],
  ["CCCCCCN(CCc1ccc(OCCNC(=O)OCCOC23CC4C[C@@H](CC(NCC(=O)N5CCC[C@H]5C#N)(C4)C2)C3)cc1)C[C@H](O)[C@@H](O)[C@H](O)[C@H](O)CO (stereo in doubt)", 23],
  ["[N-]=[N+]=NCCOCCOCCNC(=O)c1nc(C(F)(F)F)n2c1CN(C(=O)C[C@H](N)Cc1cc(F)c(F)cc1F)CC2", 1]
]}

A = CCCCCCN(Cc1cn(CCOCCOC23CC4CC(CC(NCC(=O)N5CCC[C@H]5C#N)(C4)C2)C3)nn1)C[C@H](O)[C@@H](O)[C@H](O)[C@H](O)CO
B = N[C@@H](CC(=O)N1CCn2c(C(F)(F)F)nc(C(=O)OCCN3CCOCC3)c2C1)Cc1cc(F)c(F)cc1F
C = CCCCCCCOC12CC3C[C@@H](CC(NCC(=O)N4CCC[C@H]4C#N)(C3)C1)C2 (stereo in doubt)
D = N#C[C@@H]1CCCN1C(=O)CN[C@@]12CC3C[C@@H](C1)C[C@](OCCOCCn1cc(CN(C[C@H](O)[C@@H](O)[C@H](O)[C@H](O)CO)C[C@H](O)[C@@H](O)[C@H](O)[C@H](O)CO)nn1)(C3)C2
# desc sort on IC50 across 4 molecules Kindly provide the labels arranged according to the requested ordering.
C, A, D, B
(C: 31 nM, A: 17.4 nM, D: 10.8 nM, B: 0.82 nM)

---

Test: Pharmacokinetic profiling, plasma and lung levels after intratracheal delivery in the rat
Type: in vivo
Conditions: inhaled or intranasal, Male, Sprague Dawley strain, 2 mg/kg, 1 mg/ml in PBS, Lung
Protocol: To assess the time course of the plasma and lung exposure of compounds disclosed herein, rodents were dosed IT with an exemplary compound of the present disclosure. The plasma and lung samples were taken at different time points. The drug levels were measured by LCMS.
observed.property: Cmax (ng/g)
Field: numeric (ng/g). Do not append units.

Which Cmax value is on record for CCCCCCN(Cc1cn(CCOCCOCCOC(=O)c2nc(C(F)(F)F)n3c2CN(C(=O)C[C@H](N)Cc2cc(F)c(F)cc2F)CC3)nn1)C[C@H](O)[C@@H](O)[C@H](O)[C@H](O)CO ?
41400

---

target: Human DPP4 (Homo sapiens); construct: purchased Sigma-Aldrich MAK088; assay: DPP4 activity assay (DPP4 Activity Assay Kit, fluorescent substrate); assay type: biochemical; conditions: Human DPP4; read-out: DPP4 inhibition IC50 [nM])
observed.property: IC50 (nM)

These solved cases illustrate the format of a correct answer.
{"columns": ["compound", "IC50 [nM]"],
 "data": [
  ["CCCCCCN(CCc1ccc(OCCNC(=O)OCCSC23CC4C[C@@H](CC(NCC(=O)N5CCC[C@H]5C#N)(C4)C2)C3)cc1)C[C@H](O)[C@@H](O)[C@H](O)[C@H](O)CO (stereo in doubt) [Compound 4]", 11],
  ["N#C[C@@H]1C[C@@H]2C[C@@H]2N1C(=O)[C@@H](N)[C@]12CC3CC(C[C@](OCCOC(=O)NCc4ccc(CN(C[C@@H](O)[C@H](O)[C@@H](O)[C@@H](O)CO)C[C@@H](O)[C@H](O)[C@@H](O)[C@@H](O)CO)cc4)(C3)C1)C2 (stereo in doubt) [Compound 22]", 6.6]
]}

I = CCCCCCCSC12CC3C[C@@H](CC(NCC(=O)N4CCC[C@H]4C#N)(C3)C1)C2 [Compound 2]
II = [N-]=[N+]=NCCOCCOCCOC(=O)c1nc(C(F)(F)F)n2c1CN(C(=O)C[C@H](N)Cc1cc(F)c(F)cc1F)CC2 [Compound 42]
III = CC#CCn1c(N2CCC[C@@H](N)C2)nc2c1c(=O)n(Cc1ccc(Cl)cc1C(=O)NCCCCC)c(=O)n2C [Compound 40]
With regard to IC50, arrange the entries in ascending order, please. Kindly provide the labels arranged according to the requested ordering.
II, I, III

---

molecular target: Human DPP4 (Homo sapiens); construct: purchased Sigma-Aldrich MAK088; assay: DPP4 activity assay (DPP4 Activity Assay Kit, fluorescent substrate); type: biochemical; settings: Human DPP4; read-out: DPP4 inhibition IC50 [nM])
observed.property: IC50 (nM)

These solved cases illustrate the format of a correct answer.
{"columns": ["compound", "observed.property", "readout.value"],
 "data": [
  ["CCCCCCCC(=O)OCOC12CC3CC(CC(NCC(=O)N4CCC[C@H]4C#N)(C3)C1)C2", "IC50", 32],
  ["CCCCCCN(Cc1cn(CCOCCOC23CC4C[C@H](C2)CC([C@H](N)C(=O)N2[C@H](C#N)C[C@@H]5C[C@@H]52)(C4)C3)nn1)C[C@H](O)[C@@H](O)[C@H](O)[C@H](O)CO", "IC50", 47.8],
  ["N#C[C@@H]1C[C@@H]2C[C@@H]2N1C(=O)[C@@H](N)C12CC3C[C@H](CC(OCCOC(=O)CNc4ccc(CN(CCO)CCO)cc4)(C3)C1)C2", "IC50", 12],
  ["N#C[C@@H]1C[C@@H]2C[C@@H]2N1C(=O)[C@@H](N)[C@]12CC3C[C@H](C[C@](OCCO)(C3)C1)C2", "IC50", 7.9]
]}

P = CC#CCn1c(N2CCC[C@@H](N)C2)nc2c1c(=O)n(Cc1nc(NCCCC)ccc1C(=O)O)c(=O)n2C
Q = CCCCCCN(Cc1cn(CCOCCOCCOC(=O)c2nc(C(F)(F)F)n3c2CN(C(=O)C[C@H](N)Cc2cc(F)c(F)cc2F)CC3)nn1)C[C@H](O)[C@@H](O)[C@H](O)[C@H](O)CO
Choose between P and Q : whose measured IC50 value is numerically larger? State your choice using its label.
P

---

assay: Pharmacokinetic profiling, plasma and lung levels after intratracheal or inhalation delivery in the mouse; format: in vivo; conditions: inhaled or intranasal; Mouse; Male; CD-1 strain; Intratracheal; 2 mg/kg; 1 mg/ml in PBS; Lung
observed.property: Cmax (ng/g)
Field: numeric (ng/g). Do not append units.

Which Cmax value is on record for CCCCCCN(Cc1cn(CCOCCOCCOC(=O)c2nc(C(F)(F)F)n3c2CN(C(=O)C[C@H](N)Cc2cc(F)c(F)cc2F)CC3)nn1)C[C@H](O)[C@@H](O)[C@H](O)[C@H](O)CO [Compound 46] ?
24600

---

assay: Pharmacokinetic profiling, plasma and lung levels after intratracheal or inhalation delivery in the mouse; assay type: in vivo; details: inhaled or intranasal; Mouse; Male; CD-1 strain; Intratracheal; 2 mg/kg; 1 mg/ml in PBS; Plasma
observed.property: half-life (h)
Field: numeric (h). Do not append units.

Which half-life value is on record for CCCCCCN(Cc1cn(CCOCCOCCOC(=O)c2nc(C(F)(F)F)n3c2CN(C(=O)C[C@H](N)Cc2cc(F)c(F)cc2F)CC3)nn1)C[C@H](O)[C@@H](O)[C@H](O)[C@H](O)CO ?
1.28

---

target: Human DPP4 (Homo sapiens, UniProt P27487); construct: purchased Sigma-Aldrich MAK088; assay: DPP4 activity assay (DPP4 Activity Assay Kit, fluorescent substrate); assay type: biochemical; conditions: Human DPP4; read-out: DPP4 inhibition IC50 [nM])
observed.property: IC50 (nM)

{"columns": ["compound", "tested.target", "IC50 [nM]"],
 "data": [
  ["CN1CC2(CC(NC(=O)c3nc(C(F)(F)F)n4c3CN(C(=O)C[C@H](N)Cc3cc(F)c(F)cc3F)CC4)C2)C1", "Human DPP4 (Homo sapiens, UniProt P27487)", 17.8],
  ["CC#CCn1c(N2CCC[C@@H](N)C2)nc2c1c(=O)n(Cc1ccc(Cl)cc1C(=O)OC(C)C)c(=O)n2C", "Human DPP4 (Homo sapiens, UniProt P27487)", 700],
  ["CCCCCCN(Cc1cn(CCOCCOCCOC23CC4CC(CC(NCC(=O)N5CCC[C@H]5C#N)(C4)C2)C3)nn1)C[C@H](O)[C@@H](O)[C@H](O)[C@H](O)CO", "Human DPP4 (Homo sapiens, UniProt P27487)", 14.2],
  ["N#C[C@@H]1CCCN1C(=O)CN[C@@]12CC3C[C@@H](C1)C[C@](OCCOCCn1cc(CNC[C@H](O)[C@@H](O)[C@H](O)[C@H](O)CO)nn1)(C3)C2", "Human DPP4 (Homo sapiens, UniProt P27487)", 8.2],
  ["CC#CCn1c(N2CCC[C@@H](N)C2)nc2c1c(=O)n(Cc1nc(F)ccc1C(=O)O)c(=O)n2C", "Human DPP4 (Homo sapiens, UniProt P27487)", 7.1],
  ["CC#CCn1c(N2CCC[C@@H](N)C2)nc2c1c(=O)n(Cc1ccccc1B(O)O)c(=O)n2C", "Human DPP4 (Homo sapiens, UniProt P27487)", 5.3]
]}

P = CC#CCn1c(N2CCC[C@@H](N)C2)nc2c1c(=O)n(Cc1nc(NC)ccc1C(=O)O)c(=O)n2C
Q = N[C@@H](CC(=O)N1CCn2c(C(F)(F)F)nc(C(=O)OCCOCCN3CCOCC3)c2C1)Cc1cc(F)c(F)cc1F
R = N#C[C@@H]1CCCN1C(=O)CN[C@]12CC3CC(C1)C[C@@](OCCOCCNC[C@H](O)[C@@H](O)[C@H](O)[C@H](O)CO)(C3)C2 (stereo in doubt)
S = CCCCCCN(Cc1cn(CCOCCOCCOC23CC4CC(C2)CC([C@H](N)C(=O)N2[C@H](C#N)C[C@@H]5C[C@@H]52)(C4)C3)nn1)C[C@H](O)[C@@H](O)[C@H](O)[C@H](O)CO
# desc sort on IC50 across 4 compounds Kindly provide the labels arranged according to the requested ordering.
R, P, S, Q
(R: 31.6 nM, P: 11.4 nM, S: 7.7 nM, Q: 0.54 nM)

P = N[C@@H](CC(=O)N1CCn2c(C(F)(F)F)nc(C(=O)NCCOCCN3CCOCC3)c2C1)Cc1cc(F)c(F)cc1F
Q = CC#CCn1c(N2CCC[C@@H](N)C2)nc2c1c(=O)n(Cc1nc(NCCCCCCCn3cc(CN(C[C@H](O)[C@@H](O)[C@H](O)[C@H](O)CO)C[C@H](O)[C@@H](O)[C@H](O)[C@H](O)CO)nn3)ccc1C(=O)O)c(=O)n2C
Choose between P and Q : whose measured IC50 value is numerically larger? State your choice using its label.
Q
